- Tested on: QSK
- MEASUREMENT CONDITIONS: concentration: 1 μM, replicates: in singlicate; n = 1;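 also: KINOMEscan kinase panel screen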
OUTCOME MEASURE: %Inh (%)

>>> print(df.to_string())
                                   molecule  assay_system  assay_result
0  CCC(=O)c1c(-c2ccccc2)c2cc(Cl)ccc2c(=O)n1Cc1cc(S(C)(=O)=O)n(CCC(C)(C)O)n1           QSK             8
1  CN1C(=O)C(Nc2ccccc2)=C(c2ccccc2)C1=O [SB-300079]           QSK             0
2  Cn1c(=O)c(F)c(Nc2ccc(I)cc2F)c2c(=O)n(OC[C@H](O)CO)cnc21           QSK             0
3  COc1cc(Nc2nccc(N3CCC(NC(=O)C4COc5ccccc5O4)C3)n2)cc(OC)c1OC (centres unmarked) [GSK1379761]           QSK             2
4     CCCNC(=O)Nc1ccc(Oc2ncnc3ccn(C)c23)cc1           QSK             0
5  CCC(=O)c1c(-c2ccccc2)c2cc(Cl)ccc2c(=O)n1Cc1cc(C(=O)NC2CC2)n(C)n1           QSK             0
6  Nc1n[nH]c2nnc(-c3ccccc3)c(-c3ccccc3)c12 [GW554060]           QSK             0
7     CCn1c(-c2ccoc2)nc2cnccc21 [SB-733887]           QSK             0

* * *

%Inh overview
- Test system: MAP3K4
- MEASUREMENT CONDITIONS: concentration: 1 μM, replicates: in singlicate; n = 1
OUTCOME MEASURE: %Inh

In [3]: df
Out[3]:
                                    compound  assay_system  assay_result
 0                CCn1c(-c2nonc2N)nc2ccccc21        MAP3K4            0%
 1  Cl.NS(=O)(=O)c1cccc(Nc2cc(-c3ccc(F)cc3)n[nH]2)c1        MAP3K4            1%
 2  O=C(Nc1ccc2c(c1)OCO2)NC1CCN(c2ccnc(NCc3ccc(F)cc3)n2)CC1        MAP3K4            0%
 3  Cl.c1ccc(Cn2cnc3cc(Nc4ncnc5ccccc45)ccc32)cc1        MAP3K4            0%
 4  OCCCNc1nccc(-c2c(-c3cccc(C(F)(F)F)c3)nn3cc(C(F)(F)F)ccc23)n1        MAP3K4            4%
 5  COc1cccc(C2=C(Nc3cccc(C(=O)O)c3)C(=O)NC2=O)c1        MAP3K4           20%
 6  COc1ccc(Nc2nccc(N3CCC(NS(=O)(=O)c4ccc(NC(C)=O)cc4)C3)n2)cc1 (stereo not drawn)        MAP3K4           13%
 7  COc1cc(Nc2nccc(N3CCC(NC(=O)C(C)c4ccc(Cl)cc4)C3)n2)cc(OC)c1OC (stereo not drawn)        MAP3K4            0%
 8             Nc1ncnc2c1ncn2-c1cccc2ccccc12        MAP3K4            2%
 9  O=C(NCCNc1ccnc(Nc2ccc(F)cc2)n1)Nc1ccc2c(c1)OCO2        MAP3K4           24%
10  CCc1ccc(-c2ccc3c(c2)-c2nn(C)cc2S(=O)(=O)N3C)cc1        MAP3K4            1%
11   Nc1n[nH]c2nnc(-c3ccccc3)c(-c3ccccc3)c12        MAP3K4            0%
12  CCS(=O)c1ccc(-c2coc3ccc(-c4nnc(C)o4)cc23)cc1 (stereo not drawn)        MAP3K4            0%
13  COc1cc2ncn(-c3cc(OCc4ccc(S(C)(=O)=O)cc4)c(C(N)=O)s3)c2cc1OC        MAP3K4            0%
14  C[C@@H]1CC[C@H](C(=O)NC2CCCCC2)CN1c1cc(-c2ccc3c(N)n[nH]c3c2)nc(N)n1        MAP3K4           28%
15    Fc1cccc(CSc2nnc(-c3ccc4c(c3)CCO4)o2)c1        MAP3K4            0%
16                 CCn1c(-c2ccoc2)nc2cnccc21        MAP3K4            0%
17  COC(=O)c1c(-c2ccccc2)c2cc(Br)ccc2c(=O)n1Cc1ccc(NC(=O)CCC(=O)O)cc1        MAP3K4           38%

Cited source: paper PMC5540273
